B1: ZBED2 (parent)
chain: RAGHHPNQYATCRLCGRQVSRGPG

- Variants of: B1
- ASSAY SUMMARY: protein stability index of a GFP-peptide fusion (GPS, HEK-293T) (PSI 1-6); higher = more stable;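 note: lentivirally expressed fusions sorted by FACS into six bins by GFP to DsRed ratio, PSI derived from sequencing read proportions per bin multiplied by bin number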
- CONDITION SET: c terminus: a fixed tail appended
EXPERIMENTAL READOUT: protein stability index
Answer with the value's number alone.

Some entries whose results are on file:
L14N ... 1.25
R21Q ... 2.25
T11K ... 2.56
A2F ... 2.36
G22S ... 2.53

Consider the variant L14S and give its measured protein stability index.
1.57

Next record, please: R13S
2.79

Next record, please: L14H
1.75
